Tested on: Escherichia coli
Assay: Antibacterial activity against extended-spectrum beta-lactamase harboring Escherichia coli 12-15 after 18 hrs by CLSI broth microdilution method
Format: functional
Conditions: 12-15, 18 h
// values below are reported MIC

[
  {
    "molecular.string": "CN(C)C(=N)c1ccc2cc(-c3cncc(-c4cc5ccc(C(=N)N(C)C)cc5[nH]4)c3)[nH]c2c1",
    "readout.units": "µg/mL",
    "result.qualifier": "=",
    "MIC": 1
  },
  {
    "molecular.string": "CN(C)C(=N)c1ccc2cc(-c3cnc(-c4cc5ccc(C(=N)N(C)C)cc5[nH]4)s3)[nH]c2c1",
    "readout.units": "µg/mL",
    "result.qualifier": "=",
    "MIC": 2
  },
  {
    "molecular.string": "N=C(c1ccc2cc(-c3ccc(-c4cc5ccc(C(=N)N6CCCC6)cc5[nH]4)cc3)[nH]c2c1)N1CCCC1",
    "readout.units": "µg/mL",
    "result.qualifier": "=",
    "MIC": 4
  },
  {
    "molecular.string": "N=C(c1ccc2cc(-c3ccc(-c4cc5ccc(C(=N)N6CCC6)cc5[nH]4)cc3)[nH]c2c1)N1CCC1",
    "readout.units": "µg/mL",
    "result.qualifier": "=",
    "MIC": 2
  },
  {
    "molecular.string": "COCCNC(=N)c1ccc2cc(-c3cncc(-c4cc5ccc(C(=N)NCCOC)cc5[nH]4)c3)[nH]c2c1",
    "readout.units": "µg/mL",
    "result.qualifier": ">",
    "MIC": 64
  },
  {
    "molecular.string": "CC(C)NC(=N)c1ccc2cc(-c3cncc(-c4cc5ccc(C(=N)NC(C)C)cc5[nH]4)c3)[nH]c2c1",
    "readout.units": "µg/mL",
    "result.qualifier": ">",
    "MIC": 64
  },
  {
    "molecular.string": "CNC(=N)c1ccc2cc(-c3ccc(-c4cc5ccc(C(=N)NC)cc5[nH]4)cc3)[nH]c2c1",
    "readout.units": "µg/mL",
    "result.qualifier": "=",
    "MIC": 8
  }
]
